These entries and their values trace back to PubChem BioAssay (NCI).

# Test system: NCI/ADR-RES ovarian
# experiment.summary: NCI-60 one-dose screen, 48 h (100 = growth as untreated, 0 = no growth, -100 = all killed)
# applied.conditions: 10 µM unless noted
Compounds without any hit were thinned out: in the full panel of roughly 83,000, 20% have a hit.
Kind request: treat 80% as inclusive, so growth at 80% or higher is met, anything lower is not met.

q: Is it the case that CC1(C)OC(=O)C(=Cc2ccccc2Br)C(=O)O1 has growth reaching or exceeding 80%?
a: met

q: Is it the case that O=C(Nc1ncc([N+](=O)[O-])s1)c1cccc([N+](=O)[O-])c1 has growth reaching or exceeding 80%?
a: not met

q: Is it the case that CCCCCCCCCCCCNc1ncnc2[nH]ncc12 has growth reaching or exceeding 80%?
a: met

q: Is it the case that O=[N+]([O-])c1cnc(Sc2ccncn2)c([N+](=O)[O-])c1 has growth reaching or exceeding 80%?
a: met

q: Is it the case that Cn1cnc([N+](=O)[O-])c1S(=O)(=O)Oc1ccc(Cl)cc1 has growth reaching or exceeding 80%?
a: met

q: Is it the case that CC(=O)Nc1ccc2c(c1)Cc1c(F)c(F)c(F)c(F)c1-2 has growth reaching or exceeding 80%?
a: not met

q: Is it the case that COc1cc(/C=C/C(=O)Nc2cccnc2Nc2cc(OC)c(OC)c(OC)c2)cc(OC)c1OC has growth reaching or exceeding 80%?
a: met

q: Is it the case that O=C1Cc2cc(CCn3cncn3)c(Cl)cc2N1 has growth reaching or exceeding 80%?
a: not met

q: Is it the case that O=C1NCC(Nc2ccc(Br)cc2Cl)C(=O)N1 (configuration not stated) has growth reaching or exceeding 80%?
a: met

q: Is it the case that CCOc1cc(C(C)(C)C)ccc1C1=N[C@H](c2ccc(Cl)cc2)[C@H](c2ccc(Cl)cc2)N1C(=O)N1CCN(CC#Cc2cccc3c2CN([C@@H]2CCC(=O)NC2=O)C3=O)CC1 has growth reaching or exceeding 80%?
a: not met

q: Is it the case that CCOC(=O)C1C(=O)OC2CCCCC21 (configuration not stated) has growth reaching or exceeding 80%?
a: met

q: Is it the case that Cc1nn(-c2ccccc2)c2nc(Cl)c(/C=C/C(=O)c3ccccc3)c(-c3ccccc3)c12 has growth reaching or exceeding 80%?
a: met

q: Is it the case that CCCCCCCC1(C)NC(=O)NC1=O (configuration not stated) has growth reaching or exceeding 80%?
a: met

q: Is it the case that CCOC(=O)/C=C(/C)Sc1cc(O)c2ccccc2c1O has growth reaching or exceeding 80%?
a: not met

q: Is it the case that O=NC1CC=CCC1c1ccccc1 (configuration not stated) has growth reaching or exceeding 80%?
a: met

q: Is it the case that CC(NC(=O)C(C)Oc1ccc(Cl)cc1Cl)C(=O)O (configuration not stated) has growth reaching or exceeding 80%?
a: met

q: Is it the case that O=C(Nc1nc(-c2ccccc2)cs1)c1cc(O)c(O)c(O)c1 has growth reaching or exceeding 80%?
a: not met

q: Is it the case that COc1ccc(OC)c2c1[nH]c(=O)c1c3ccccc3cn21 has growth reaching or exceeding 80%?
a: not met

q: Is it the case that Cn1cc(-c2csc(-c3cn(C)c4ncccc34)n2)c2cccnc21 has growth reaching or exceeding 80%?
a: met

q: Is it the case that CC[N+](C)(CC)CCCC(C)Nc1ccnc2cc(Cl)ccc12 (configuration not stated) has growth reaching or exceeding 80%?
a: met

q: Is it the case that COc1cc(/C=C/C(=O)c2ccc(F)cc2)ccc1OCCCCCOc1cc2c(cc1OC)C(=O)N1CCCC1C=N2 (configuration not stated) has growth reaching or exceeding 80%?
a: not met

q: Is it the case that CC(C)[C@]12O[C@H]1[C@@H]1O[C@]13[C@]1(O[C@H]1C[C@H]1C4=C(CC[C@@]13C)C(=O)OC4)[C@@H]2OC(=O)CN(C)C has growth reaching or exceeding 80%?
a: not met

---

# Tested on: 786-0 renal
# experiment.summary: NCI-60 one-dose screen, 48 h (100 = growth as untreated, 0 = no growth, -100 = all killed)
# applied.conditions: 10 µM unless noted
Compounds without any hit were thinned out: in the full panel of roughly 83,000, 20% have a hit.
reported.endpoint: growth (%)
Just the number please, in %, no unit attached.

Value of measured growth for the entry CCOC(=O)c1c(C)c(C(=O)OCC)n(C)c1C : 92.5

Value of measured growth for the entry C=C1c2c(C)nn(-c3ccc(C#CCOC4OC(CO)C(O)C(O)C4O)cc3)c2N(C)C23C[C@H]1C1(C)c4c(C)nn(-c5ccc(C#CCOC6OC(CO)C(O)C(O)C6O)cc5)c4N(C)C(C)(C[C@H]12)C3 (stereo not given in full) : 17.2

Value of measured growth for the entry CCC(C)CC(CC)NCCN1CCN(C(CC)CC(C)CC)C1=S (stereo not given) : 56.5

Value of measured growth for the entry CCOC(=O)C1C(=O)OC2CCCCC21 (stereo not given) : 100

Value of measured growth for the entry COc1ccc2c(c1)/C(=C\c1c[nH]c3ccc(F)cc13)C(=O)N2 : 96.5

---

Task for the reader: assign each of the following compounds its reported growth.
# Tested on: NCI/ADR-RES ovarian
# experiment.summary: NCI-60 one-dose screen, 48 h (100 = growth as untreated, 0 = no growth, -100 = all killed)
# applied.conditions: 10 µM unless noted
About 83,000 compounds went through this panel and 20% of them were active in at least one assay; those are over-represented in the sample as a whole.
Just the number please, in %, no unit attached.

Value of measured growth for the entry CCn1c2c(c3ccccc31)SC1c3cccn3CCN1C2=S (stereo unspecified) : 102

Value of measured growth for the entry CCOc1nc(-c2ccccc2)cc2c(O)c(-c3nnco3)[nH]c(=O)c12 : 25.5

Value of measured growth for the entry COc1ccc(/C=C(\C#N)c2ccccc2)cc1 : 78

Value of measured growth for the entry N#CCCN(CCO)c1ccccc1 : 112

Value of measured growth for the entry C=C1CC[C@@H]2[C@](C)(COC(C)=O)[C@H](OC(C)=O)CC[C@@]2(C)[C@@H]1CC(Nc1ccc(S(=O)(=O)Nc2cc(C)on2)cc1)C1=CCOC1=O (stereo partly specified) : 31.6

Value of measured growth for the entry O=C(NCCCO)c1cc(Cl)ccc1O : 95.8

Value of measured growth for the entry CCN(CC)CCOc1ccccc1-n1c(C)ccc1-c1ccccc1 : 85.4

Value of measured growth for the entry Cc1ccc2c(c1)O/C(=C\c1ccc([N+](=O)[O-])o1)C2=O : 78.5

Value of measured growth for the entry Cc1c(C(N)=O)sc2c1C(=O)N(Cc1ccccc1)C1=NN=C(c3ccc(Cl)cc3)CN12 : 9.99

Value of measured growth for the entry O=C(c1ccccc1)c1ccco1 : 95.7

Value of measured growth for the entry COc1cc(Oc2cc(-c3cccnc3)ccc2NC(=O)Nc2ccc(F)cc2F)cc(OC)c1OC : 95.2

Value of measured growth for the entry Cc1nn(-c2ccc(Cl)cc2)c2nc3c(nc12)c(=O)oc1ccccc13 : 102

Value of measured growth for the entry COC(=O)CCC1=C(CC(=O)OC)C(C)=N/C1=C\c1[nH]c(-c2ccc[nH]2)cc1OC : 17.5

Value of measured growth for the entry COc1ccc2nc(-c3ccc(-n4cncc4-c4ccc(OC)c(N)c4)cc3)sc2c1 : 115

Value of measured growth for the entry c1ccc2cc(C[n+]3ccn(CCCCCCCn4cc[n+](Cc5ccc6ccccc6c5)c4)c3)ccc2c1 : 99.7

Value of measured growth for the entry CCOC(=O)C1=NN(c2ccc(Cl)cc2)C2C3N(c4ccc(Cl)cc4)N=C(C(=O)OCC)N3c3ccccc3N12 (stereo unspecified) : 101

Value of measured growth for the entry CN(C)c1nc(N)nc(Cn2c(-c3nonc3N)nc3ccccc32)n1 : 73.6

Value of measured growth for the entry O=C(/C(=C/c1ccc([N+](=O)[O-])cc1)c1ccccc1)c1ccccc1 : 46.5

Value of measured growth for the entry CSC1=Nc2c(c(C)c(-c3ccccc3)n2CCCN2CCCCC2)C2=NC(=O)C[C@H](C)N12 : 82.4

Value of measured growth for the entry CCCCSc1cc(C)nc(N)n1 : 95

Value of measured growth for the entry O=C1CC(C(F)(F)F)=NN1C(=O)c1nn(-c2ccc(Cl)cc2)cc1O : 72.4

---

# Test system: U251 CNS
# experiment.summary: NCI-60 one-dose screen, 48 h
# applied.conditions: 10 µM unless noted
This is part of a sample that, as a whole, favours compounds with a hit. Of some 83,000 tested, about 20% had one in any assay. Active and inactive are the calls of the source. The calls were made as follows: active = growth percent below 10; inactive = the rest.
// allowed return values: active, inactive

q: For CN1CCN(Cc2ccc(NC(=O)c3[nH]ncc3Nc3ccnc4ccnn34)cc2)CC1 , which call appears in the assay record?
a: inactive

q: For Cc1ccc(C(C)C)cc1NC(=O)Nc1ccc([N+](=O)[O-])cc1 , which call appears in the assay record?
a: inactive

q: For CCOc1ccccc1C(=O)OCC(=O)Nc1cccc(S(=O)(=O)N(C)C)c1 , which call appears in the assay record?
a: inactive

q: For COc1cc2cn3c4ccc(O)cc4nc(N)c3c2cc1OC , which call appears in the assay record?
a: active

q: For C=CC1=C(C(=O)O)N2C(=O)[C@@H](NC(=O)/C(=N\O)c3csc(N)n3)[C@H]2SC1 (stereo in doubt) , which call appears in the assay record?
a: inactive

q: For O=C(Nc1ccc(Cl)cc1)Nc1ccc(Oc2nncc3ccccc23)cc1 , which call appears in the assay record?
a: active

q: For COc1cc(/C=C/C(=O)c2c(-c3ccc(Cl)cc3)nc3sc(C)nn23)cc(OC)c1OC , which call appears in the assay record?
a: inactive

q: For O=C(Nc1nc(-c2ccccc2)cs1)c1cc(O)c(O)c(O)c1 , which call appears in the assay record?
a: inactive

q: For C[N+]1(CCC[N+]2(C)C[C@@H]3[C@H](C2)[C@@H]2C=C[C@H]3C2)CCOCC1 (some centres not stated) , which call appears in the assay record?
a: inactive

q: For CCOc1nc(-c2ccccc2)cc2c(O)c(C(=O)n3nc(C)cc3C)[nH]c(=O)c12 , which call appears in the assay record?
a: inactive

q: For O=C(Nc1ccncc1)C(=O)c1cn(S(=O)(=O)c2cccc(F)c2)c2ccccc12 , which call appears in the assay record?
a: inactive

q: For CCOC(=O)/C=C(/C)Sc1cc(O)c2ccccc2c1O , which call appears in the assay record?
a: inactive

q: For COc1ccc(-c2c(-c3cc(OC)c(OC)c(OC)c3)noc2N)cc1 , which call appears in the assay record?
a: inactive

q: For COc1ccc2[nH]cc(/C=C3/C(=O)Nc4ccc(Cl)cc43)c2c1 , which call appears in the assay record?
a: inactive

q: For O=C1/C(=N/O)CCc2ccccc21 , which call appears in the assay record?
a: inactive

q: For O=C1C(Cl)=C(N=Nc2c(Cl)c(O)c3ccccc3c2O)C(=O)c2ccccc21 , which call appears in the assay record?
a: inactive

q: For O=C(CN1CCCCC1)Sc1nnc2sc3ccccc3n12 , which call appears in the assay record?
a: inactive

q: For CCC(C)CC(C)C(=O)c1c(O)ccn(O)c1=O (configuration not stated) , which call appears in the assay record?
a: inactive

q: For O=C(c1ccccc1)c1ccco1 , which call appears in the assay record?
a: inactive

q: For COc1cc(C2CC(c3ccc(C)cc3)=NN2C(C)=O)ccc1Oc1ccnc2cc(Cl)ccc12 (configuration not stated) , which call appears in the assay record?
a: inactive

q: For CSc1nc2c(c(=O)[nH]1)C(c1ccc(Cl)cc1)C1=C(N2)/C(=C/c2ccc(Cl)cc2)CNC1 (configuration not stated) , which call appears in the assay record?
a: active

q: For Cn1c(N)c(N=O)c(=O)[nH]c1=O , which call appears in the assay record?
a: inactive

q: For Oc1[nH]c2ccc(Cl)cc2c1/C=c1/ccc2c(c1)N=C(c1ccc(C(F)(F)F)cc1)N=2 , which call appears in the assay record?
a: inactive

q: For O=c1[nH]c(=O)n(C2CC(O)C(CO)O2)cc1C(F)(F)F (configuration not stated) , which call appears in the assay record?
a: inactive

q: For Clc1ccc(-n2cnc3c(Cl)ncnc32)cc1Cl , which call appears in the assay record?
a: inactive

q: For C=C1c2c(C)nn(-c3ccc(C#CCOC4OC(CO)C(O)C(O)C4O)cc3)c2N(C)C23C[C@H]1C1(C)c4c(C)nn(-c5ccc(C#CCOC6OC(CO)C(O)C(O)C6O)cc5)c4N(C)C(C)(C[C@H]12)C3 (some centres not stated) , which call appears in the assay record?
a: active

q: For CCc1ccc(CCN2C(=O)c3ccccc3C2=O)nc1 , which call appears in the assay record?
a: inactive

q: For Cc1c(N(C)CS(=O)(=O)O)c(=O)n(-c2ccccc2)n1C , which call appears in the assay record?
a: inactive

q: For Cc1cc(CC(=O)O)n(C)c1C(=O)c1ccc(Cl)cc1 , which call appears in the assay record?
a: inactive

q: For CSc1nc2c(c(=O)n1C)C(c1ccccc1)C1=C(N2)/C(=C/c2ccccc2)CCC1 (configuration not stated) , which call appears in the assay record?
a: inactive

q: For CC12CCCCC1C(C(N)=O)C(=O)O2 (configuration not stated) , which call appears in the assay record?
a: inactive

q: For Clc1ccc([C@@H]2C[C@@H]3Cc4cc(Br)c5ccccc5c4N2O3)c(Cl)c1 , which call appears in the assay record?
a: inactive

q: For CC(=O)c1ccc2c3c(n(C)c2c1)CCCC3 , which call appears in the assay record?
a: inactive

q: For CCCCCCCCCCCCCCCCCc1nccn1CCO , which call appears in the assay record?
a: inactive

q: For COc1cc(-c2cc(C(=O)Nc3nc4ccccc4s3)nc3cc(-c4ccccc4)nn23)cc(OC)c1OC , which call appears in the assay record?
a: inactive

q: For CCCCCCCCCCC[C@@H](C[C@H]1OC(=O)[C@H]1CCCCCC)OC(=O)[C@@H](CC(C)C)NC=O , which call appears in the assay record?
a: inactive

q: For Cc1cc(NC(=O)Nc2cccc3ccccc23)no1 , which call appears in the assay record?
a: inactive

q: For NC(N)=NN=c1c(=O)c2ccccc2c1=O , which call appears in the assay record?
a: inactive

q: For Clc1ccccc1[C@@H]1C[C@@H]2Cc3cc(Br)c4ccccc4c3N1O2 , which call appears in the assay record?
a: inactive

q: For Cc1nnc(Nc2ccc(NC(=O)Nc3ccc(Cl)cc3)cc2)c2ccccc12 , which call appears in the assay record?
a: active

q: For COc1ccc(C2CC(c3ccc(OC)c(OC)c3)=NN2C(=O)c2cc(OC)c(OC)c(OC)c2)cc1 (configuration not stated) , which call appears in the assay record?
a: inactive

q: For O=C1Cc2cc(CCN3CCN(CCOCCO)CC3)c(Cl)cc2N1Cc1ccc(-c2ccccc2-c2nn[nH]n2)cc1 , which call appears in the assay record?
a: inactive
